System: Zymoseptoria tritici (SEPTTR-184)
assay explanation: Efficacy of target gene fragments (MgCytB dsRNA tiles) on wheat plants, SEPTTR-184
Assay type: in vivo
Parameters: scale not given here
assay conditions: 12.5 ppm; 3DC (curative)
Measured Average of 2 trials SEPTTR-184 3DC values are reported for all entries that follow.

MgCytB-T4: 219 bp dsRNA of Zymoseptoria CytB region T4, location 1-219 (SEQ ID NO:7) (nucleic acid, listed as Zymoseptoria tritici, complementary strand of dsRNA) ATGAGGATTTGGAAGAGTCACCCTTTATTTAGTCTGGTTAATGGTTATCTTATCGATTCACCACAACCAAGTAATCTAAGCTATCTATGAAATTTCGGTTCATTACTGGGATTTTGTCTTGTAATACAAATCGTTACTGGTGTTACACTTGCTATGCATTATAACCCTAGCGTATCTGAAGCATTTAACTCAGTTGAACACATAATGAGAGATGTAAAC; 75
MgCytB-T3: 116 bp dsRNA of Zymoseptoria CytB region 3, location 279-394 (SEQ ID NO:6) (nucleic acid, listed as Zymoseptoria tritici, long dsRNA, chemistry not given here, further chemistry not given here) TTACCTGCACGTGGGTAGAGGGTTATACTACGGGTCATACAAAGCCCCTAGAACATTAACATGAACAATCGGTACTATAATACTAGTTCTGATGATGGCAACCGCATTCTTAGGGT; 84
MgCytB-T7: 221 bp dsRNA of Zymoseptoria CytB region T7, location 947-1167 (SEQ ID NO:10) (nucleic acid, listed as Zymoseptoria tritici, complementary strand of dsRNA) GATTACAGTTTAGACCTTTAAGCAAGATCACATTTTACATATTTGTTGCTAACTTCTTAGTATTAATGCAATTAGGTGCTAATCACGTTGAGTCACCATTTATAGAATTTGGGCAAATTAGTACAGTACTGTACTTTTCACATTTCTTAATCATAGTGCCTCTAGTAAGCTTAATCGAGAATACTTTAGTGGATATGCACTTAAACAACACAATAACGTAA; 72

Next, consider the following molecule.
Q: So what's the measured Average of 2 trials SEPTTR-184 3DC for this one? MgCytB-T1: 267 bp dsRNA of Zymoseptoria CytB region 1, location 364-630 (SEQ ID NO:4) (nucleic acid, listed as Zymoseptoria tritici, complementary strand of dsRNA) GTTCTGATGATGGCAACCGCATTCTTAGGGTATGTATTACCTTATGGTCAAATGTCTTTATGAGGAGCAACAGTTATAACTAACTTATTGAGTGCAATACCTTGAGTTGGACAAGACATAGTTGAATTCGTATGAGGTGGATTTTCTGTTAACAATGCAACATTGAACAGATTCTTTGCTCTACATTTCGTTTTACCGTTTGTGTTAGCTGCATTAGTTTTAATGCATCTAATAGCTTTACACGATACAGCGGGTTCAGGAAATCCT
Ans: 76
